Every entry's value here was drawn from patent US20210253725A1.

Kindly state IL-8 [abs. corr.] for each of the entries shown.
Molecular target: T1, CD27 expressed on the cell surface (HT1080_CD27 cells) (human, UniProt P26842 20-260); further: test concentration or dose not given here
T1 sequence (looked up): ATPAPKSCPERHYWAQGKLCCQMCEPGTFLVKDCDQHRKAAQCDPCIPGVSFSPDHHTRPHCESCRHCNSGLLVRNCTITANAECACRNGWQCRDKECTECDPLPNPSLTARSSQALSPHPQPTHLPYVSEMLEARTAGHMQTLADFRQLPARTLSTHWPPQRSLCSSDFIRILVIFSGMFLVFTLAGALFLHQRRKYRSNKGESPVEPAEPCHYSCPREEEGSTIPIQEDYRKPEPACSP
Assay: cell-based or functional assay
Reply numerically in abs. corr., unit not repeated.

Item P018.S.10.A.E06 (antibody, V domains shown, V regions on human Ig constant parts; also called AB27_178) VH: QSLEESGGRLVTPGTPLTLTCTVSGIDLSDYAMAWVRQAPGKGLEYIGFINIGGISSVANWAIGRFTISKSSTTVDLKITSPTTEDTATYFCAREGYTTGGGGPYYGMDLWGPGTLVTVSS VL: DIVMTQTPASVSEPMGGTVTIKCQASQSIHSWLSWYQQKPGQPPKRLIYTASTLASGVPSRFKGSGSGTEYTLTISDLESADAATYYCQRNSYSDFNNYVFGGGTEVVVK has what recorded IL-8 [abs. corr.]? 0.262

What would you report for P018.S.01.A.C02 (antibody, V domains shown, V regions on human Ig constant parts; also called AB27_7) VH: QSLEESGGDLVQPGASLTLTCTASGLDFISSYMCWVRQAPGKGLEWIGCIAPGGGNTYYATWAKGRFTFSETSSTTVTLQMTSLTAADTATYFCARTYPSIWYFGLWGPGTLVTVSS VL: DVVMTQTPASVSEPVGGTVTIKCQASQSIGSNLGWYQQKPGQPPKLLIYGASTLASGVSSRFKGSGSGTEFTLTMSDLESADAATYYCQSFYAASSAFGGGTEVVVK ? 0.395
